Values compiled from PubChem BioAssay.

experiment: small-molecule binders of probe aNOTCH3, primary screen, biochemical, small-molecule microarray, 635/667 nm fluorescence (AID 1120); settings: higher = more signal;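 also: probe is a biotin-tagged antibody raised against NOTCH3 rather than NOTCH3 protein; score merges spot fluorescence near 667 nm with spot signal to noise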
readout_label: composite z-score
Reply with just the number.

>  <molecule>
COC(=O)[C@]1(CO)N=C(c2ccc(OCCCO)cc2)O[C@@H]1c1ccccc1CN=[N+]=[N-]

>  <composite z-score>
-0.122

$$$$
>  <molecule>
[N-]=[N+]=NCc1ccccc1[C@H]1OC(c2ccc(OCCCO)cc2)=N[C@@]1(Cc1ccccc1)C(=O)N1CCOCC1

>  <composite z-score>
0.754

$$$$
>  <molecule>
O=C(NCC(F)(F)F)[C@@H]1c2ccccc2C(=O)N(CC23CC4CC(CC(C4)C2)C3)[C@H]1c1ccc(CO)cc1

>  <composite z-score>
0.0981

$$$$
>  <molecule>
[N-]=[N+]=NCc1ccccc1[C@@H]1OC(c2ccc(OCCCO)cc2)=N[C@]1(Cc1ccccc1)C(=O)NCc1ccccc1

>  <composite z-score>
0.0774

$$$$
>  <molecule>
CCCCN1CC=CC23O[C@@H]4C=CCOC(=O)[C@@H]4[C@H]2C(=O)N(C(CO)C(C)C)[C@@H]3C1=O (stereo partly specified)

>  <composite z-score>
-0.279

$$$$
>  <molecule>
CCCCC=C[C@@H](NC(=O)c1ccc(C(F)(F)F)cc1)c1ccccc1

>  <composite z-score>
-0.165

$$$$
>  <molecule>
CCOC(=O)C[C@H]1[C@H](OC(=O)c2cc3ccccc3oc2=O)[C@@H](NC(=O)C2CCCCC2)c2cc(OCCCO)ccc2N1C(=O)Cc1ccc(OC)cc1

>  <composite z-score>
1.41

$$$$
>  <molecule>
COCCCNC(=O)[C@@]1(Sc2ccc(C)cc2)CC(=O)N(C2CCCCC2)[C@@H]1c1ccc(CO)cc1I

>  <composite z-score>
0.145

$$$$
>  <molecule>
CCCCC(=C=CC[C@H](O)c1ccc(OCCO)cc1)C[C@H](O)c1ccccn1

>  <composite z-score>
0.102

$$$$
>  <molecule>
C=C(COC)/C(=C/C[C@H](OC(=O)c1ccncc1)c1ccc(OCCO)cc1)c1cc(C(=O)OC)ccc1OC

>  <composite z-score>
0.325

$$$$

Please examine the following record next.
Suppose we examine the molecule COc1ccc(C(O)C2C=CC3C(=O)N(C)C(=O)C3N2Nc2ccc([N+](=O)[O-])cc2[N+](=O)[O-])cc1OCc1ccccc1 (stereo unspecified) ; what composite z-score value has been reported?
0.583
